Collected GI50 values appear next to each entry.
System: SN12C
Assay: Anticancer activity against Homo sapiens (human) SN12C cells after 48 hr by SRB assay
Type: functional
Don't forget the unit after the number, please.

COc1ccc(OC)c(/C=C/c2nnc(S)n2-c2ccc(Cl)cc2)c1 :: 6.07 µM
COc1ccc(OC)c(/C=C/C(=O)N/N=C/c2ccccc2)c1 :: 4.17 µM
COc1ccc(OC)c(/C=C/c2nnc(Nc3ccc(Cl)cc3)o2)c1 :: 4.21 µM

# next compound below
[Q] Param item = COc1ccc(OC)c(/C=C/C(=O)N/N=C/c2ccc(Cl)cc2)c1 ; retrieve measured GI50.
[A] 0.982 µM

Reference for the values: ChEMBL document CHEMBL3046389
